Test system: Staphylococcus aureus Terajima (IID 670)
Where a name gives a salt, the structure may show the parent alone.
// MIC lookup, one value per entry
The reply should consist of the numeric value with the unit placed after it.

INSERT INTO results (molecule, readout_value) VALUES
  ('CN1Cc2csc3c(C(=O)O)c(=O)c4cc(F)c(N5CCN6CCOC[C@H]6C5)c1c4n23 [Compound (F)]', '0.05 µg/mL');

Q: Jot down MIC (Staphylococcus aureus Terajima (IID 670)) of CN1Cc2csc3c(C(=O)O)c(=O)c4cc(F)c(N5CCO[C@H](CO)C5)c1c4n23 [Compound (M)] .
Ans: 0.025 µg/mL

Q: Jot down MIC (Staphylococcus aureus Terajima (IID 670)) of CN1Cc2csc3c(C(=O)O)c(=O)c4cc(F)c(N5CCN(C)C(CF)C5)c1c4n23 (stereo not shown) [Compound (K), hydrochloride] .
Ans: 0.05 µg/mL

Q: Jot down MIC (Staphylococcus aureus Terajima (IID 670)) of CN1Cc2csc3c(C(=O)O)c(=O)c4cc(F)c(N5CCOC(CF)C5)c1c4n23 (stereo not shown) [Compound (C)] .
Ans: 0.013 µg/mL

Q: Jot down MIC (Staphylococcus aureus Terajima (IID 670)) of CCOCC1CN(c2c(F)cc3c(=O)c(C(=O)O)c4scc5n4c3c2N(C)C5)CCO1 (stereo not shown) [Compound (Q)] .
Ans: 0.1 µg/mL

Q: Jot down MIC (Staphylococcus aureus Terajima (IID 670)) of CN1Cc2csc3c(C(=O)O)c(=O)c4cc(F)c(N5CCC(N(C)C)CC5)c1c4n23 [Compound (H)] .
Ans: 0.05 µg/mL
